# key: entry, value: CAMA1 Western % ER deg vs Fv
target: estrogen receptor (ERα) in CAMA-1 human breast cancer cell line (Homo sapiens (Human)); experiment: Western blotting assay, CAMA-1 cells; assay type: cell-based; conditions: 100 nM compound, 48 h; normalised to vehicle (0%) and 100 nM fulvestrant (100%)
Sequence (P03372 whole entry): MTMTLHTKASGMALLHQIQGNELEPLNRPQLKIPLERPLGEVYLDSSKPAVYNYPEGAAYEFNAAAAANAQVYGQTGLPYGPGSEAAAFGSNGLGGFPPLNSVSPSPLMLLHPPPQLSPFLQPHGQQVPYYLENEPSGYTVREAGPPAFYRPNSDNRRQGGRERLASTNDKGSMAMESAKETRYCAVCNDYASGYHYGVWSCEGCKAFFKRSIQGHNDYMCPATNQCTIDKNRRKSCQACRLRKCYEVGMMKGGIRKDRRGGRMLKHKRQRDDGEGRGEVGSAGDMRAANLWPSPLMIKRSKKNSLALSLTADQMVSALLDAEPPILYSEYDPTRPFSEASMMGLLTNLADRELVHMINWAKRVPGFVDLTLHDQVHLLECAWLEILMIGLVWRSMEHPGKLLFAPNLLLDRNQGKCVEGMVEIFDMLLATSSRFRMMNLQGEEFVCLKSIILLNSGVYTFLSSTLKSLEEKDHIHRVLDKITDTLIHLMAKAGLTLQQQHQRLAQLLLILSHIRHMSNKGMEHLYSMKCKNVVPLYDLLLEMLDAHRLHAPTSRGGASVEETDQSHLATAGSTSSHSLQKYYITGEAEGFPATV
assayReadout: CAMA1 Western % ER deg vs Fv (%)

1) COc1cc(OCCN2CC(CF)C2)ccc1[C@@H]1c2ccc3[nH]ncc3c2C[C@@H](C)N1CC(F)F [Example 7] : 95
2) COc1cc(OCCN2CC(CF)C2)ccc1[C@@H]1c2ccc3[nH]ncc3c2C[C@@H](C)N1CC(C)C [Example 9] : 81
3) C[C@@H]1Cc2c(ccc3[nH]ncc23)[C@@H](c2ccc(OCCN3CC(CF)C3)cn2)N1CC1(F)CC1 [Example 8] : 86
4) C[C@@H]1Cc2c(ccc3[nH]ncc23)[C@@H](c2ccc(OCCN3CC(CF)C3)cn2)N1CC(F)(F)F [Example 49] : 77
